Tested on: CCRF-CEM
Assay: Cytotoxicity against vinblastine-resistant human CCRF-CEM cells after 72 hrs by XTT assay
Type: functional, cell-based
Entries and their measured pIC50 follow.
Entry type: numeric. Quantity: pIC50, the -log10 of concentration in molar units.

Structure String	Measured Parameter	Reported Value
O=C(Nc1ccc(N(CCCl)CCCl)cc1)Nc1cccc(OCCN2CCCCC2)c1	pIC50	6.14
Cl.O=C(Nc1ccc(OCCN2CCCCC2)cc1)Nc1ccc(N(CCCl)CCCl)cc1	pIC50	6.14

Okay, now this compound:
# pIC50 (compound: Cl.O=C(Nc1ccc(N(CCCl)CCCl)cc1)Nc1cccc(C(=O)N2CCC(N3CCCCC3)CC2)c1 ) is 4.70

These data points were gathered from ChEMBL document CHEMBL1641520.
